Reference source: patent US8835420B2

Target: PI3Kδ (recombinant GST-tagged PIK3CD co-expressed with PIK3R1, p85α) (Homo sapiens, UniProt O00329)
Construct: The protein is full length and co-expressed with untagged PIK3R1; GST; purchased Invitrogen PV5274
Sequence (O00329 whole entry): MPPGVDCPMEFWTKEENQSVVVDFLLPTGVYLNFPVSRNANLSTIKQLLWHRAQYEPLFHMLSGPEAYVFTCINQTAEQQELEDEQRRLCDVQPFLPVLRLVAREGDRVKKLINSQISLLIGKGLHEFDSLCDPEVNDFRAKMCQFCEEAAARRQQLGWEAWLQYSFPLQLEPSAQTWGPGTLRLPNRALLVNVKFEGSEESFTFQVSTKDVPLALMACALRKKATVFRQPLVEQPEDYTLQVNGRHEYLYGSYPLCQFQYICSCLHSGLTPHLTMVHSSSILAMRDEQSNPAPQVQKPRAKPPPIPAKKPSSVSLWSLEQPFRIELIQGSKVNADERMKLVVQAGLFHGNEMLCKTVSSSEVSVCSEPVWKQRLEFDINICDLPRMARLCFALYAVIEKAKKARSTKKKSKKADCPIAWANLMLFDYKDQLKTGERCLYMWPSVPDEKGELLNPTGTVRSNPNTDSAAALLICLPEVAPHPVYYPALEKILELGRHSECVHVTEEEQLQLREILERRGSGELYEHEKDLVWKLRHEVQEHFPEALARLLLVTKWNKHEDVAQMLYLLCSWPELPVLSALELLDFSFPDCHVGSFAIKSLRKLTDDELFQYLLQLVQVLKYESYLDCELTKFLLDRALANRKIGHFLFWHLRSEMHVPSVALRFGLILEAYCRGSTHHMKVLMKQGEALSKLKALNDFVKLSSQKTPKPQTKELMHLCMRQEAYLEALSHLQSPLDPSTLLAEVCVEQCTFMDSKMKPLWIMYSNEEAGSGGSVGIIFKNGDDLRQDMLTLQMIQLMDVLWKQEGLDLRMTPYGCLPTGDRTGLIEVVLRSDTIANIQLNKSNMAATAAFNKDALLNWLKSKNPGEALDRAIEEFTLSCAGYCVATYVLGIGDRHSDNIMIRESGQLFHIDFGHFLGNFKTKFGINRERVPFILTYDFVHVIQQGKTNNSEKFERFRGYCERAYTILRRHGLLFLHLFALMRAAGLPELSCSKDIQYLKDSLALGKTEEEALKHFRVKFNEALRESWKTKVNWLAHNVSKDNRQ
Sequence (P27986 whole entry partner): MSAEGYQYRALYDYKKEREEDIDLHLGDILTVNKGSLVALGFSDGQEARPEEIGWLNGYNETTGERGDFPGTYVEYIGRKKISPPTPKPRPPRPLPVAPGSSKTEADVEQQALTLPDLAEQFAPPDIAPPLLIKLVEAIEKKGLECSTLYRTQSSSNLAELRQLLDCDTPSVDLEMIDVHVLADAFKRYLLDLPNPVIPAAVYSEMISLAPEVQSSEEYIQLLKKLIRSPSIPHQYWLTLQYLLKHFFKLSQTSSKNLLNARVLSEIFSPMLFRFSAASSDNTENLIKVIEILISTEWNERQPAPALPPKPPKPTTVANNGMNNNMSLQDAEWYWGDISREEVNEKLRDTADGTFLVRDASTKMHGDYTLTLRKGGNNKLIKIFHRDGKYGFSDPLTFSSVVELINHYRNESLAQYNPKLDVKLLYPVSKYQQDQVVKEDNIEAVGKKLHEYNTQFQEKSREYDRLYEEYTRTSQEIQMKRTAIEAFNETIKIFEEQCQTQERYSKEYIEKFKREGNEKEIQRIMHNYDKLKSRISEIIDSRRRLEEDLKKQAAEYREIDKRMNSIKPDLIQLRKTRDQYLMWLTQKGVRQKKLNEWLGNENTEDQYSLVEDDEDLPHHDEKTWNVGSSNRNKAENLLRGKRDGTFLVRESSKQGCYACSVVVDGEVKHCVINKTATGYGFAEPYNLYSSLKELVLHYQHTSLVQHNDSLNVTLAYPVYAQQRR
Assay: PI3Kδ inhibition, modified PIK3CD Adapta TR-FRET kinase assay
Type: biochemical
Details: 2 μM ATP, 50 μM PIP2, 1 hour at room temperature, pIC50 = -log(IC50 in M)
PROPERTY: IC50 (nM)

Past entries and their recorded results:
COMPOUND	IC50, nM
C[C@H](Nc1nc(O)nc(N)c1C#N)c1nc2ccn(C)c2cc1N1CCOCC1 [Example 8]	1000
Cc1nc(N)nc(N[C@@H](C)c2nc3ccn(C)c3cc2N2CCOCC2)c1C#N [Example 9]	0.794

a. C[C@@H](Nc1nc(N)nc(N)c1C#N)c1nc2ccn(C)c2cc1N1CC2(COC2)C1 [Example 46]
b. C[C@H](Nc1nc(N)nc(N)c1C#N)c1nc2ccn(C)c2cc1-c1ccnn1C [Example 2]
Req: Select the item whose IC50 value is smaller, choosing between a and b . Respond with the label that goes with your answer.
Resp: b
(b: 2.51 nM, a: 200 nM)

A. C[C@H](Nc1nc(N)nc(N)c1C#N)c1nc2c(O)cn(C)c2cc1N1CCOCC1 [Example 49]
B. C[C@H](Nc1nc(N)nc2[nH]cnc12)c1nc2ccn(C)c2cc1-c1ccnn1C [Example 16]
Req: // max by IC50 over [ A , B ] Respond with the label that goes with your answer.
Resp: A
(A: 251 nM, B: 7.94 nM)
